# target: Calmodulin-1 (Homo sapiens)
# assay-text: CALM1 binders on microarrays, EGTA buffer, profiling panel, biochemical, small-molecule microarray, Cy5-labelled CALM1 (AID 1111);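 also: labelled calmodulin applied in Tris saline Tween buffer holding calcium plus EGTA and DTT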
# measurement-parameters: Cy5-CALM1 binding fluorescence, higher = more signal
readout-kind: composite z-score
The answer should be a number; do not append a unit.

>>> experimental_result("CCc1cc2c(nc1CC)CCN(CCC(C)=NOC[C@@H](O)COCc1ccco1)C2")
-0.729
>>> experimental_result("CCOC(=O)CCN1C(=O)[C@H]2[C@H]3[C@H](O)[C@H](O)CC(=NOCc4ccccc4)[C@@H]3CC[C@H]2C1=O")
-0.138

Determine from records and report composite z-score for N#Cc1ccc(NN2C(C(O)c3cccc4ccccc34)C=CC3C(=O)N(c4ccccc4)C(=O)C32)cc1 (configuration not stated)
1.74

Determine from records and report composite z-score for C=CC[C@]1(C(=O)NCc2ccccc2)N=C(c2ccc(OCCCO)cc2)O[C@H]1c1ccccc1
0.392

Determine from records and report composite z-score for O=C1C[C@]2(c3ccc([N+](=O)[O-])cc3)C(=O)N(CCN3CCOCC3)c3cc(CO)ccc3[C@H]2N1CC12CC3CC(CC(C3)C1)C2
0.846

Determine from records and report composite z-score for O=C1[C@H]2[C@H]3[C@H](O)[C@H](O)CC(=NOC[C@@H](O)COCc4ccco4)[C@@H]3CC[C@H]2C(=O)N1c1ccc(F)cc1F
-0.616

Determine from records and report composite z-score for COC(=O)[C@H](C)NC(=O)CCC1CC(OC(=O)NCc2ccc3c(c2)OCO3)CC2(CCCC(COC(=O)NCCOc3ccccc3)O2)O1 (some centres not stated)
-0.0874
